Listed molecules paired with reported molar extinction coefficient
assay: absorption spectrum (maximum absorption wavelength, molar extinction coefficient); format: physicochemical

Molecule: COCCOCCOCCOCCOCCOCCOCCC(=O)OCCOCCNc1c(O)c2c(=O)cc(OC)c3c4c(OC)cc(=O)c5c(NCCOCCOC(=O)CCOCCOCCOCCOCCOCCOCCOC)c(OC)c6c(c(c1C=C(C)C6C(C)=O)c23)c54 (centres unmarked)
molar extinction coefficient: 30,000 M^−1cm^−1

# evaluate next
Read off the recorded molar extinction coefficient for COCCOCCOCCOCCOCCOCCOC(=O)CCCNc1c2c3c4c(c(OC)c(=O)c5c(NCCCC(=O)OCCOCCOCCOCCOCCOCCOC)cc(OC)c(c6c(OC)cc(O)c(c1=O)c63)c54)C(C(C)=O)C(C)=C2 (centres unmarked)
31,500 M^−1cm^−1

====

Listed compounds paired with reported maximum absorption wavelength
assay: absorption spectrum (maximum absorption wavelength, molar extinction coefficient); type: physicochemical

// solved cases for maximum absorption wavelength follow
Compound: COc1c2c3c4c(c(NCC(=O)O)c(=O)c5c(O)cc(OC)c(c6c(OC)cc(NCC(=O)O)c(c1=O)c63)c54)C=C(C)C2
maximum absorption wavelength: 626 nm
--
Compound: COc1c(NCCOCCO)c2c(=O)cc(OC)c3c4c(OC)cc(=O)c5c(O)c(NCCOCCO)c6c(c(c1CC(C)=C6)c23)c54
maximum absorption wavelength: 624 nm
--
Compound: COc1c(NC2(CO)CC2)c2c(=O)cc(OC)c3c4c(OC)cc(=O)c5c(O)c(NC6(CO)CC6)c6c(c(c1C(C(C)=O)C(C)=C6)c23)c54 (stereo not drawn) [HB-35b]
maximum absorption wavelength: 620 nm
--
Compound: COc1c(O)c2c(=O)cc(OC)c3c4c(OC)cc(=O)c5c(NC6(CO)CC6)c(NC6(CO)CC6)c6c(c(c1C(C(C)=O)C(C)=C6)c23)c54 (stereo not drawn) [HB-35a]
maximum absorption wavelength: 621 nm
--
Compound: COc1c(NCCOCCO)c2c(=O)cc(OC)c3c4c(OC)cc(=O)c5c(O)c(NCCOCCO)c6c(c(c1C(C(C)=O)C(C)=C6)c23)c54 (stereo not drawn)
maximum absorption wavelength: 622 nm

# evaluate next
Read off the recorded maximum absorption wavelength for COCCOCCOCCOCCOCCOCCOCCOCCOC(=O)C1CCC(CNc2c3c4c5c(c(OC)c(=O)c6c(O)cc(OC)c(c7c(OC)cc(NCC8CCC(C(=O)OCCOCCOCCOCCOCCOCCOCCOCCOC)CC8)c(c2=O)c74)c65)CC(C)=C3)CC1 (stereo not drawn) [HC-13c-PEG8]
628 nm

====

Listed compounds paired with reported molar extinction coefficient
assay: absorption spectrum (maximum absorption wavelength, molar extinction coefficient); type: physicochemical

Compound: CCNc1c2c3c4c(c(OC)c(=O)c5c(NC6CCCC6)cc(OC)c(c6c(OC)c(SCCO)c(O)c(c1=O)c36)c54)C(C(C)=O)C(C)=C2 (stereo not drawn) [HB-S-44d]
molar extinction coefficient: 21,500 M^−1cm^−1
--
Compound: COc1c(NCCC(=O)O)c2c(=O)cc(OC)c3c4c(OC)cc(=O)c5c(O)c(NCCC(=O)O)c6c(c(c1C(C(C)=O)C(C)=C6)c23)c54 (stereo not drawn) [HB-10b]
molar extinction coefficient: 31,500 M^−1cm^−1
--
Compound: COc1c2c3c4c(c(NC(CC(N)=O)C(=O)O)c(=O)c5c(O)cc(OC)c(c6c(OC)cc(NC(CC(N)=O)C(=O)O)c(c1=O)c63)c54)C=C(C)C2C(C)=O (stereo not drawn) [HB-26d]
molar extinction coefficient: 20,500 M^−1cm^−1
--
Compound: CCNc1c2c3c4c(c(OC)c(=O)c5c(NC6CCCC6)cc(OC)c(c6c(OC)cc(O)c(c1=O)c63)c54)C(C(C)=O)C(C)=C2 (stereo not drawn) [HB-44d]
molar extinction coefficient: 21,500 M^−1cm^−1
--
Compound: COc1c2c3c4c(c(NCCCCCC(=O)O)c(=O)c5c(NCCCCCC(=O)O)cc(OC)c(c6c(OC)cc(O)c(c1=O)c63)c54)C=C(C)C2
molar extinction coefficient: 27,000 M^−1cm^−1

# evaluate next
Read off the recorded molar extinction coefficient for COC(=O)C1CCC(CNc2c(O)c3c(=O)cc(OC)c4c5c(OC)cc(=O)c6c(NCC7CCC(C(=O)OC)CC7)c(OC)c7c(c(c2C=C(C)C7C(C)=O)c34)c65)CC1 (stereo not drawn) [HB-13b-AcE]
27,000 M^−1cm^−1

====

Listed compounds paired with reported molar extinction coefficient
assay: absorption spectrum (maximum absorption wavelength, molar extinction coefficient); type: physicochemical

// solved cases for molar extinction coefficient follow
Compound: COc1c2c3c4c(c(NC5CCCC(C(=O)O)C5)c(=O)c5c(O)cc(OC)c(c6c(OC)cc(NC7CCCC(C(=O)O)C7)c(c1=O)c63)c54)C=C(C)C2C(C)=O (centres unmarked) [HB-15d]
Property measured: molar extinction coefficient
Experimental result: 27,000 M^−1cm^−1
//
Compound: COc1c(O)c2c(=O)cc(OC)c3c4c(OC)cc(=O)c5c(NC6CCC(O)CC6)c(NC6CCC(O)CC6)c6c(c(c1C(C(C)=O)C(C)=C6)c23)c54 (centres unmarked) [HB-17a]
Property measured: molar extinction coefficient
Experimental result: 25,000 M^−1cm^−1
//
Compound: COc1c2c3c4c(c(NC(CCC(=O)O)C(=O)O)c(=O)c5c(NC(CCC(=O)O)C(=O)O)cc(OC)c(c6c(OC)cc(O)c(c1=O)c63)c54)C=C(C)C2C(C)=O (centres unmarked) [HB-28c]
Property measured: molar extinction coefficient
Experimental result: 21,500 M^−1cm^−1
//
Compound: COc1c(O)c2c(=O)cc(OC)c3c4c(OC)cc(=O)c5c(NCCCC(=O)O)c(NCCCC(=O)O)c6c(c(c1C(C(C)=O)C(C)=C6)c23)c54 (centres unmarked) [HB-8a]
Property measured: molar extinction coefficient
Experimental result: 27,500 M^−1cm^−1
//
Compound: COCCOCCOCCOCCOCCOCCOCCOCCOCCOCCOCCOCCOCCC(=O)OCCOCCNc1c2c3c4c(c(OC)c(=O)c5c(O)cc(OC)c(c6c(OC)cc(NCCOCCOC(=O)CCOCCOCCOCCOCCOCCOCCOCCOCCOCCOCCOCCOCCOC)c(c1=O)c63)c54)CC(C)=C2 [HC-1c-PEG12]
Property measured: molar extinction coefficient
Experimental result: 32,500 M^−1cm^−1
//
Compound: COc1c2c3c4c(c(NCCCC(=O)O)c(=O)c5c(NCCCC(=O)O)cc(OC)c(c6c(OC)cc(O)c(c1=O)c63)c54)C=C(C)C2C(C)=O (centres unmarked) [HB-8c]
Property measured: molar extinction coefficient
Experimental result: 29,500 M^−1cm^−1

Read off the recorded molar extinction coefficient for COCCOCCC(=O)OCCNc1c(NCCOC(=O)CCOCCOC)c2c(=O)cc(OC)c3c4c(OC)cc(=O)c5c(O)c(OC)c6c(c(c1C=C(C)C6C(C)=O)c23)c54 (centres unmarked) [HB-2a-PEG1]
30,500 M^−1cm^−1

Read off the recorded molar extinction coefficient for COc1c(NC2(CO)CC2)c2c(=O)cc(OC)c3c4c(OC)cc(=O)c5c(O)c(NC6(CO)CC6)c6c(c(c1C(C(C)=O)C(C)=C6)c23)c54 (centres unmarked) [HB-35b]
31,500 M^−1cm^−1

Read off the recorded molar extinction coefficient for COc1c(O)c2c(=O)cc(OC)c3c4c(OC)cc(=O)c5c(NC6CCCCC6C(=O)O)c(NC6CCCCC6C(=O)O)c6c(c(c1C(C(C)=O)C(C)=C6)c23)c54 (centres unmarked) [HB-16a]
25,500 M^−1cm^−1

Read off the recorded molar extinction coefficient for COc1c2c3c4c(c(NCc5ccccn5)c(=O)c5c(NCc6ccccn6)cc(OC)c(c6c(OC)cc(O)c(c1=O)c63)c54)C=C(C)C2C(C)=O (centres unmarked) [HB-38c]
20,000 M^−1cm^−1

Read off the recorded molar extinction coefficient for COc1c(NCC(=O)O)c2c(=O)cc(OC)c3c4c(OC)cc(=O)c5c(O)c(NCC(=O)O)c6c(c(c1C(C(C)=O)C(C)=C6)c23)c54 (centres unmarked) [HB-7b]
28,000 M^−1cm^−1

====

experiment: absorption spectrum (maximum absorption wavelength, molar extinction coefficient); assay type: physicochemical
Property measured: maximum absorption wavelength (nm)
A number alone suffices; assume nm.

Read off the recorded maximum absorption wavelength for COCCOCCOCCOCCOCCOCCOCCOCCOCCOCCOCCOCCOCCN1CCC(CNc2c3c4c5c(c(OC)c(=O)c6c(NCC7CCN(CCOCCOCCOCCOCCOCCOCCOCCOCCOCCOCCOCCOCCOC)CC7)cc(OC)c(c7c(OC)cc(O)c(c2=O)c74)c65)C(C(C)=O)C(C)=C3)CC1 (stereo not shown) [HB-32d-PEG12]
632

Read off the recorded maximum absorption wavelength for COCCOCCOCCOCCOCCOCCOCCOCCOCCNC(=O)C1CCC(CNc2c3c4c5c(c(OC)c(=O)c6c(NCC7CCC(C(=O)NCCOCCOCCOCCOCCOCCOCCOCCOCCOC)CC7)cc(OC)c(c7c(OC)cc(O)c(c2=O)c74)c65)CC(C)=C3)CC1 (stereo not shown) [HC-13d-NH-PEG8]
625

Read off the recorded maximum absorption wavelength for COc1c(O)c2c(=O)cc(OC)c3c4c(OC)cc(=O)c5c(NO)c(NO)c6c(c(c1CC(C)=C6)c23)c54 [HC-37a]
620

Read off the recorded maximum absorption wavelength for COCCOCCOCCOCCOC(=O)C1CCC(CNc2c3c4c5c(c(OC)c(=O)c6c(O)cc(OC)c(c7c(OC)cc(NCC8CCC(C(=O)OCCOCCOCCOCCOC)CC8)c(c2=O)c74)c65)C(C(C)=O)C(C)=C3)CC1 (stereo not shown) [HB-13c-PEG4]
630
